Numbers sourced from ChEMBL document CHEMBL5034017.

# assay-notes: Inhibition of recombinant Schistosoma manson carbonic anhydrase pre-incubated with enzyme for 15 mins by phenol red dye based stopped flow CO2 hydration assay
# Set-up: species or system Schistosoma mansoni
Record form. Attribute: Ki. Fill in for each entry.
Output spec: scalar in nM, unitless text.

Lookup: Can you look up the measured Ki of "NS(=O)(=O)c1ccc(CCNC(=[Se])Nc2ccccc2)cc1" for me?
Found: 3.2

Lookup: Repeat for the following compound: "NS(=O)(=O)c1ccc(NC(=[Se])Nc2ccccc2F)cc1"
Found: 5.7

Lookup: Quick one: "NS(=O)(=O)c1ccc(NC(=[Se])Nc2ccccc2)cc1"
Found: 83.7

Lookup: Same for "NS(=O)(=O)c1ccc(CCNC(=[Se])Nc2ccccc2Cl)cc1"
Found: 5.8

Lookup: Let us now turn to "NS(=O)(=O)c1ccc(CCNC(=[Se])Nc2ccc3ccccc3c2)cc1"
Found: 84.9
